biological target: Substance P receptors (guinea pig NK1) (Cavia porcellus); construct: from tissue; host or cells: guinea pig (Hartley) ileum LMMP, 1 μM naloxone present; assay: Guinea pig isolated ileum (GPI) assay with substance P stimulation in presence of 1 μM naloxone; settings: Substance P antagonist, GPI, Ke, in the presence of 1 μM naloxone
Sequence (P30547 whole entry): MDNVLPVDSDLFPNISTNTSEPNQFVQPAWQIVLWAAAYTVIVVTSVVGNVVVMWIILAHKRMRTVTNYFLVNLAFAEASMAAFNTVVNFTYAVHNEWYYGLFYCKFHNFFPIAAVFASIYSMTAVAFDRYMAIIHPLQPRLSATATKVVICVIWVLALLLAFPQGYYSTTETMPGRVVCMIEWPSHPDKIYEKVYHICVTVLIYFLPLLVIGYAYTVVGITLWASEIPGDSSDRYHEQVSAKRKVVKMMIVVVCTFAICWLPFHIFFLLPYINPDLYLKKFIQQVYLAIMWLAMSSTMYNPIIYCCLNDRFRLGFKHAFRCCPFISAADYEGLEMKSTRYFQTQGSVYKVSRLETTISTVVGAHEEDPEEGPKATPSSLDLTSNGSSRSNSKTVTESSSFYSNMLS
Peptide text beside a SMILES is read from it.
Consider the following compounds and their measured Kb readings.
The answer is to be given in nM; state only the numeric part.

compound	readoutUnit	measuredValue
CC(C)C[C@H](NC(=O)[C@@H]1CCCN1C(=O)CNC(=O)[C@H](Cc1ccccc1)NC(=O)CNC(=O)[C@@H](C)NC(=O)[C@@H](N)Cc1ccc(O)cc1)C(=O)N[C@@H](Cc1c[nH]c2ccccc12)C(=O)OCc1cc(C(F)(F)F)cc(C(F)(F)F)c1 [TY006] (HELM PEPTIDE1{Y.[dA].G.F.G.P.L.W.[FC(F)(F)c1cc(CO[*:1])cc(C(F)(F)F)c1]}$$$$V2.0)	nM	5.4

The record that follows has no Kb shown yet.
Memo: CC(C)C[C@H](NC(=O)[C@@H]1CCCN1C(=O)[C@H](CC[S+](C)[O-])NC(=O)[C@H](Cc1ccccc1)NC(=O)CNC(=O)[C@@H](C)NC(=O)[C@@H](N)Cc1ccc(O)cc1)C(=O)N[C@@H](Cc1c[nH]c2ccccc12)C(=O)OCc1cc(C(F)(F)F)cc(C(F)(F)F)c1 (some centres unmarked) , reported Kb: 7.8

* * *

molecular target: human δ opioid receptors (hDOR) (Homo sapiens); construct: expressed in transfected cells; host or cells: HN9.10 neuroblastoma cell line, pCDNA3, neomycin-selected clones; test: Radioligand competition binding, [3H]DPDPE, hDOR membranes; details: read-out: Ki, hDOR, [3H]DPDPE
Sequence (P41143 whole entry): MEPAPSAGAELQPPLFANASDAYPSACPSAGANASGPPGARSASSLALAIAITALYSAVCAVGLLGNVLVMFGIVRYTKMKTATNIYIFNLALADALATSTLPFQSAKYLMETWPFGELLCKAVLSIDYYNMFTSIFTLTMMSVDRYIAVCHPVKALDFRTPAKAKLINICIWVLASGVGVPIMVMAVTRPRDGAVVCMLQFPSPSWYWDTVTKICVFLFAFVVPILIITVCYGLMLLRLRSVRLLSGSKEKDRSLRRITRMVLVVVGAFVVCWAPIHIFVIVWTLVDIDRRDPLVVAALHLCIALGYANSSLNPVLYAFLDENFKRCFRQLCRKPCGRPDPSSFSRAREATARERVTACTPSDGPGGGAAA
Peptide text beside a SMILES is read from it.
measuredProperty: pKi
Keep it numeric: pKi is minus log10 of the concentration in mol/L.

compound	experimentalSystem	pKi
CC(C)C[C@H](NC(=O)[C@@H]1CCCN1C(=O)[C@H](CC(C)C)NC(=O)[C@H](Cc1ccccc1)NC(=O)CNC(=O)[C@@H](C)NC(=O)[C@@H](N)Cc1ccc(O)cc1)C(=O)N[C@@H](Cc1c[nH]c2ccccc12)C(=O)OCc1cc(C(F)(F)F)cc(C(F)(F)F)c1	human δ opioid receptors (hDOR) (Homo sapiens)	8.30
CCCC[C@@H]1NC(=O)[C@H](Cc2ccccc2)NC(=O)CNC(=O)[C@H](NC(=O)[C@@H](N)Cc2ccc(O)cc2)CSSC[C@@H](C(=O)N[C@@H](Cc2c[nH]c3ccccc23)C(=O)NCc2cc(C(F)(F)F)cc(C(F)(F)F)c2)NC(=O)[C@@H]2CCCN2C1=O [TY035, [D-Cys^2, Cys^7]TY027] (HELM PEPTIDE1{Y.[dC].G.F.[Nle].P.C.W.[FC(F)(F)c1cc(CN[*:1])cc(C(F)(F)F)c1]}$PEPTIDE1,PEPTIDE1,2:R3-7:R3$$$V2.0; N-terminus assumed)	human δ opioid receptors (hDOR) (Homo sapiens)	8.89
CC(C)C[C@H](NC(=O)[C@@H]1CCCN1C(=O)[C@@H](Cc1ccccc1)NC(=O)[C@H](Cc1ccccc1)NC(=O)CNC(=O)[C@@H](C)NC(=O)[C@@H](N)Cc1ccc(O)cc1)C(=O)N[C@@H](Cc1c[nH]c2ccccc12)C(=O)OCc1cc(C(F)(F)F)cc(C(F)(F)F)c1	human δ opioid receptors (hDOR) (Homo sapiens)	7.03

The record that follows has no pKi shown yet.
Memo: CC(C)C[C@H](NC(=O)[C@@H]1CCCN1C(=O)CNC(=O)[C@H](Cc1ccccc1)NC(=O)CNC(=O)[C@@H](C)NC(=O)[C@@H](N)Cc1ccc(O)cc1)C(=O)N[C@@H](Cc1c[nH]c2ccccc12)C(=O)OCc1cc(C(F)(F)F)cc(C(F)(F)F)c1 [TY006] (HELM PEPTIDE1{Y.[dA].G.F.G.P.L.W.[FC(F)(F)c1cc(CO[*:1])cc(C(F)(F)F)c1]}$$$$V2.0) , reported pKi: 7.44

* * *

molecular target: human NK1 receptor (hNK1) (Homo sapiens, UniProt P25103); construct: expressed in transfected cells; test: Radioligand competition binding, [3H]-Substance P, hNK1; details: Ki rNK1 vs Ki hNK1
Sequence (P25103 whole entry): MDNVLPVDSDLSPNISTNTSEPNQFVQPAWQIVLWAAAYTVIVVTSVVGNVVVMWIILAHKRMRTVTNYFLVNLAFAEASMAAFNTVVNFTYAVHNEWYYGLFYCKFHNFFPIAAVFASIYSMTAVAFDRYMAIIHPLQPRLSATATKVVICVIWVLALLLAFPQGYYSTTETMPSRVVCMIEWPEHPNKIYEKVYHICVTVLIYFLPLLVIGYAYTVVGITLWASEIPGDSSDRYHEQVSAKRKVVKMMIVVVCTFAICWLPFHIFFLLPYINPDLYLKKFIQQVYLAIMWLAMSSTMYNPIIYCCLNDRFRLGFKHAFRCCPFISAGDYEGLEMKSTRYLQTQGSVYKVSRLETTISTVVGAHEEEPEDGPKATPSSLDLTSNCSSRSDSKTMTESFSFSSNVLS
measuredProperty: species difference between affinities at rNK1 and hNK1 (fold)
The answer is to be given in fold; state only the numeric part.

Below are worked cases with known answers.
mol	measuredValue
CSCC[C@H](NC(=O)[C@H](Cc1ccccc1)NC(=O)CNC(=O)[C@@H](C)NC(=O)[C@@H](N)Cc1ccc(O)cc1)C(=O)N1CCC[C@H]1C(=O)N[C@@H](CC(C)C)C(=O)N[C@@H](Cc1c[nH]c2ccccc12)C(=O)NCc1ccccc1	220
CSCC[C@H](NC(=O)[C@H](Cc1ccccc1)NC(=O)CNC(=O)[C@@H](C)NC(=O)[C@@H](N)Cc1ccc(O)cc1)C(=O)N1CCC[C@H]1C(=O)N[C@@H](CC(C)C)C(=O)N[C@@H](Cc1c[nH]c2ccccc12)C(=O)NCc1cc(C(F)(F)F)cc(C(F)(F)F)c1	1100

Memo: CSCC[C@H](NC(=O)[C@H](Cc1ccccc1)NC(=O)CNC(=O)[C@@H](C)NC(=O)[C@@H](N)Cc1ccc(O)cc1)C(=O)N1CCC[C@H]1C(=O)N[C@@H](CC(C)C)C(=O)N[C@@H](Cc1c[nH]c2ccccc12)C(=O)OCc1cc(C(F)(F)F)cc(C(F)(F)F)c1 , reported species difference between affinities at rNK1 and hNK1: 3.4

Memo: CC(C)C[C@H](NC(=O)[C@@H]1CCCN1C(=O)[C@H](Cc1ccccc1)NC(=O)CNC(=O)[C@@H](C)NC(=O)[C@@H](N)Cc1ccc(O)cc1)C(=O)N[C@@H](Cc1c[nH]c2ccccc12)C(=O)OCc1cc(C(F)(F)F)cc(C(F)(F)F)c1 , reported species difference between affinities at rNK1 and hNK1: 700

* * *

Consider the following compounds and their measured Emax readings.
target: rat μ opioid receptors (rMOR) (Rattus norvegicus); construct: expressed in transfected cells; host or cells: HN9.10 neuroblastoma cell line, pCDNA3, neomycin-selected clones; test: biochemical; type: biochemical; settings: Table 39; read-out: GTP binding rMOR Emax
Sequence (P33535 whole entry): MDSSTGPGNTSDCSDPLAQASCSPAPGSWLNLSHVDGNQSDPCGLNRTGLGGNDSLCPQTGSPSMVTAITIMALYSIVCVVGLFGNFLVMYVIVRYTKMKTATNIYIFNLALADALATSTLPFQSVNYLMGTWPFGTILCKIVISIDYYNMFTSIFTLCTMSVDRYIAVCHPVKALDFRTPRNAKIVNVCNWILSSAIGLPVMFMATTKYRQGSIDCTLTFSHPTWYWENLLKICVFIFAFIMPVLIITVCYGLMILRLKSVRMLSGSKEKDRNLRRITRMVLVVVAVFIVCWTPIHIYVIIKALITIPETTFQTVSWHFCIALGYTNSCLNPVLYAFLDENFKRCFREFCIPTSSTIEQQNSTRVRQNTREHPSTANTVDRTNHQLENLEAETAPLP
Peptide text beside a SMILES is read from it.
The answer is to be given in %; state only the numeric part.

Below are worked cases with known answers.
compound	experimentalSystem	readoutUnit	measuredValue
CSCC[C@H](NC(=O)[C@H](Cc1ccccc1)NC(=O)CNC(=O)[C@@H](C)NC(=O)[C@@H](N)Cc1ccc(O)cc1)C(=O)N1CCC[C@H]1C(=O)N[C@@H](CC(C)C)C(=O)N[C@@H](Cc1c[nH]c2ccccc12)C(=O)N(C)Cc1cc(C(F)(F)F)cc(C(F)(F)F)c1	rat μ opioid receptors (rMOR) (Rattus norvegicus)	%	52
CC(C)C[C@H](NC(=O)[C@@H]1CCCN1C(=O)[C@H](Cc1ccccc1)NC(=O)[C@H](Cc1ccccc1)NC(=O)CNC(=O)[C@@H](C)NC(=O)[C@@H](N)Cc1ccc(O)cc1)C(=O)N[C@@H](Cc1c[nH]c2ccccc12)C(=O)NCc1cc(C(F)(F)F)cc(C(F)(F)F)c1 [TY015] (HELM PEPTIDE1{Y.[dA].G.F.F.P.L.W.[FC(F)(F)c1cc(CN[*:1])cc(C(F)(F)F)c1]}$$$$V2.0; N-terminus assumed)	rat μ opioid receptors (rMOR) (Rattus norvegicus)	%	64.4
CSCC[C@H](NC(=O)[C@H](Cc1ccccc1)NC(=O)CNC(=O)[C@@H](C)NC(=O)[C@@H](N)Cc1ccc(O)cc1)C(=O)N1CCC[C@H]1C(=O)N[C@@H](CC(C)C)C(=O)N[C@@H](Cc1c[nH]c2ccccc12)C(=O)O	rat μ opioid receptors (rMOR) (Rattus norvegicus)	%	36
CC(C)C[C@H](NC(=O)[C@@H]1CCCN1C(=O)[C@H](Cc1ccccc1)NC(=O)[C@H](Cc1ccccc1)NC(=O)CNC(=O)[C@@H](C)NC(=O)[C@@H](N)Cc1ccc(O)cc1)C(=O)N[C@@H](Cc1c[nH]c2ccccc12)C(=O)N(C)Cc1cc(C(F)(F)F)cc(C(F)(F)F)c1 [TY017] (HELM PEPTIDE1{Y.[dA].G.F.F.P.L.W.[CN(Cc1cc(C(F)(F)F)cc(C(F)(F)F)c1)[*:1]]}$$$$V2.0; N-terminus assumed)	rat μ opioid receptors (rMOR) (Rattus norvegicus)	%	62.4
CCCC[C@H](NC(=O)[C@H](Cc1ccccc1)NC(=O)CNC(=O)[C@@H](C)NC(=O)[C@@H](N)Cc1c(C)cc(O)cc1C)C(=O)N1CCC[C@H]1C(=O)N[C@@H](CC(C)C)C(=O)N[C@@H](Cc1c[nH]c2ccccc12)C(=O)NCc1cccc(C(F)(F)F)c1	rat μ opioid receptors (rMOR) (Rattus norvegicus)	%	20

Memo: CSCC[C@H](NC(=O)[C@H](Cc1ccccc1)NC(=O)CNC(=O)[C@@H](C)NC(=O)[C@@H](N)Cc1c(C)cc(O)cc1C)C(=O)N1CCC[C@H]1C(=O)N[C@@H](CC(C)C)C(=O)N[C@@H](Cc1c[nH]c2ccccc12)C(=O)OCc1cc(C(F)(F)F)cc(C(F)(F)F)c1 , reported Emax: 59

Memo: CC(C)C[C@H](NC(=O)[C@@H]1CCCN1C(=O)CNC(=O)[C@H](Cc1ccccc1)NC(=O)CNC(=O)[C@@H](C)NC(=O)[C@@H](N)Cc1ccc(O)cc1)C(=O)N[C@@H](Cc1c[nH]c2ccccc12)C(=O)OCc1cc(C(F)(F)F)cc(C(F)(F)F)c1 [TY006] (HELM PEPTIDE1{Y.[dA].G.F.G.P.L.W.[FC(F)(F)c1cc(CO[*:1])cc(C(F)(F)F)c1]}$$$$V2.0) , reported Emax: 35.9

Memo: CC(C)C[C@H](NC(=O)[C@@H]1CCCN1C(=O)[C@H]1CSSC[C@@H](NC(=O)[C@@H](N)Cc2ccc(O)cc2)C(=O)NCC(=O)N[C@@H](Cc2ccccc2)C(=O)N1)C(=O)N[C@@H](Cc1c[nH]c2ccccc12)C(=O)NCc1cc(C(F)(F)F)cc(C(F)(F)F)c1 [TY037, [D-Cys^2, D-Cys^5]TY027] , reported Emax: 8
